Item-by-item account of inhibition
# EXPERIMENTAL SYSTEM: Serine/threonine-protein kinase PAK 6 (Homo sapiens);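 further: mean PAK6 inhibition reported from the GSK PKIS screen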
# CONDITION INFO: at 0.1 µM
PROPERTY: inhibition (%)

COMPOUND	VALUE REPORTED
CS(=O)(=O)CCNCc1nc(-c2ccc3ncnc(Nc4ccc(F)c(Cl)c4)c3c2)cs1	5.79
CN(C)c1cc2c(Nc3ccc4nc(Cc5ccccc5)[nH]c4c3)ncnc2cn1	7.15
CC1=C(C(=O)Nc2ccc3[nH]ncc3c2)C(c2ccc3ccccc3c2)CC(=O)N1 (centres undefined)	-2.35
CC(C)=Cc1cccc2c1/C(=N/Nc1ccc(S(N)(=O)=O)cc1)C(=O)N2	7.25
O=C1NC(=O)C(c2ccc(Cl)cc2)=C1Nc1ccc(Cl)c(C(=O)O)c1	13.1
COc1cc2ncn(-c3cc(OCc4ccccc4Cl)c(C(N)=O)s3)c2cc1OC	-7.38
COc1cccc(-n2ncc3c(N/N=C/c4cccc(F)c4)ncnc32)c1	12.7
NCc1ccc(-c2nc(-c3ccc(Cl)c(O)c3)c(-c3ccncc3)[nH]2)cc1	7.6
COC(=O)Nc1nc2cc(Oc3cccc(NC(=O)Nc4cc(C(F)(F)F)ccc4F)c3)ccc2[nH]1	6.44
